Where do these numbers come from? They come from the Bradley open melting point set (2014).

Quantity Name: melting point (°C)

See these solved cases before continuing.
Compound	Quantity Name	Value Measured
C/C=C/c1ccccc1 [trans-1-phenyl-1-propene]	melting point	-29
c1ccc2c(c1)c1ccccc1c1ccccc21	melting point	199
c1ccc2c(c1)ccc1ccccc12	melting point	99
CN(C)C(=O)Nc1ccc(Cl)c(Cl)c1	melting point	158
Nc1ccc(C(=O)O)cc1 [p-aminobenzoic_acid]	melting point	189
CCCCCOC(C)=O [N-pentyl acetate]	melting point	-100
Cc1ccc(S(=O)(=O)Cl)cc1 [p-toluenesulfonyl chloride]	melting point	69
COc1cccc2oc(-c3ccccc3)c(O)c(=O)c12 [3-hydroxy-5-methoxyflavone]	melting point	175

A: COB(OC)OC [Trimethyl borate]
B: CCOc1ccc(NC(=O)CN)cc1
C: C1=CCCCC1
D: O=CCc1ccccc1
E: O=c1nc[nH]c2c1ncn2[C@H]1CC[C@@H](CO)O1
**Query** Put the compounds in ascending order of melting point. Answer format: list of labels, ordered as asked.
**Result** C, A, D, B, E
